Below, each of the compounds is paired with its reported pIC50 value.
# target_system: Ribosomal protein S6 kinase alpha-6 (Homo sapiens, UniProt Q9UK32)
# Sequence (Q9UK32 whole entry): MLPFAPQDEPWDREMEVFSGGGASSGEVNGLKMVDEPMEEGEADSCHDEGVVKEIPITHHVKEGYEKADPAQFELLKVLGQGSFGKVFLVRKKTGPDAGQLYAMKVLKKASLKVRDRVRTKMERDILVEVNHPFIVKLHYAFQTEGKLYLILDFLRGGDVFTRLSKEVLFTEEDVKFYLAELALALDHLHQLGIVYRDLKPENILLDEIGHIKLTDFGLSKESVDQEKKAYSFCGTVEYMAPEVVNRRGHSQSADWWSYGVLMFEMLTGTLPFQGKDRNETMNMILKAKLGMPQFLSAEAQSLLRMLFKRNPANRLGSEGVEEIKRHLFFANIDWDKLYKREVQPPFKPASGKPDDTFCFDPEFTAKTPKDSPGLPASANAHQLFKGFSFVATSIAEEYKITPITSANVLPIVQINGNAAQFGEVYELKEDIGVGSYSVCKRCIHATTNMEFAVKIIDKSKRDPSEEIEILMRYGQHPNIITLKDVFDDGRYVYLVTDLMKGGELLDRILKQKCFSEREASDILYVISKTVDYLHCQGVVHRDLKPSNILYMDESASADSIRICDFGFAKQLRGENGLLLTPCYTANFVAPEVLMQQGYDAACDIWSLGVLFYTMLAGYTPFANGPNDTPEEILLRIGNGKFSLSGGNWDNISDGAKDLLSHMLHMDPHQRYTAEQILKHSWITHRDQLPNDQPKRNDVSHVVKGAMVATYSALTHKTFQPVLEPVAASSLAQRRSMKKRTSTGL
# run_description: Inhibition of recombinant full length human His6-tagged RSK4 expressed in baculovirus infected sf21 cells using biotin labelled Ahx-KKLNRTLSFAEPG peptide as substrate preincubated with enzyme for 15 mins followed by substrate addition and further incubated for 30 mins in presence of 10 uM of ATP by TR-FRET assay
# pIC50: negative log10 of molar concentration; output just the value

The following compounds have reported results that may help.
| compound | pIC50 |
| --- | --- |
| C[C@H](c1ccnc(Nc2nc3ccc(-c4cnn(CC5CCC5)c4)cc3[nH]2)c1)N1CCN(C(=O)CC(F)(F)F)CC1 | 6.49 |
| Cc1noc(-c2ccc3nc(Nc4cc(CN5CCN(C(=O)CC(F)(F)F)CC5)ccn4)[nH]c3c2)n1 | 5.05 |
| COCc1cc(-c2ccc3nc(Nc4cc([C@@H](C)N5CCN(C(=O)CC(F)(F)F)CC5)ccn4)[nH]c3c2)ncn1 | 6.72 |
| Cc1noc(-c2ccc3nc(Nc4cc([C@@H](C)N5CCN(C(=O)CC(F)(F)F)CC5)ccn4)[nH]c3c2)n1 | 5.63 |
| Cn1cc(-c2ccc3nc(Nc4cc(CN5CCN(C(=O)CC(F)(F)F)CC5)ccn4)[nH]c3c2)cn1 | 4.95 |
| C[C@H](c1ccnc(Nc2nc3ccc(-c4cc(N(C)C)ncn4)cc3[nH]2)c1)N1CCN(C(=O)CC(F)(F)F)CC1 [BAY-985] | 6.56 |
| CN(C)c1cc(-c2ccc3nc(Nc4cc(CN5CCN(C(=O)CC(F)(F)F)CC5)ccn4)[nH]c3c2)ccn1 | 5.55 |
| CC(C)Oc1cncnc1-c1ccc2nc(Nc3cc([C@@H](C)N4CCN(C(=O)CC(F)(F)F)CC4)ccn3)[nH]c2c1 | 8.15 |

Q: Recorded pIC50 for C[C@H](c1ccnc(Nc2nc3ccc(-c4cnn(CC5CC5)c4)cc3[nH]2)c1)N1CCN(C(=O)CC(F)(F)F)CC1 , please?
Result: 5.49

###

# target_system: Inhibitor of nuclear factor kappa-B kinase subunit epsilon (Homo sapiens, UniProt Q14164)
# Sequence (Q14164 whole entry): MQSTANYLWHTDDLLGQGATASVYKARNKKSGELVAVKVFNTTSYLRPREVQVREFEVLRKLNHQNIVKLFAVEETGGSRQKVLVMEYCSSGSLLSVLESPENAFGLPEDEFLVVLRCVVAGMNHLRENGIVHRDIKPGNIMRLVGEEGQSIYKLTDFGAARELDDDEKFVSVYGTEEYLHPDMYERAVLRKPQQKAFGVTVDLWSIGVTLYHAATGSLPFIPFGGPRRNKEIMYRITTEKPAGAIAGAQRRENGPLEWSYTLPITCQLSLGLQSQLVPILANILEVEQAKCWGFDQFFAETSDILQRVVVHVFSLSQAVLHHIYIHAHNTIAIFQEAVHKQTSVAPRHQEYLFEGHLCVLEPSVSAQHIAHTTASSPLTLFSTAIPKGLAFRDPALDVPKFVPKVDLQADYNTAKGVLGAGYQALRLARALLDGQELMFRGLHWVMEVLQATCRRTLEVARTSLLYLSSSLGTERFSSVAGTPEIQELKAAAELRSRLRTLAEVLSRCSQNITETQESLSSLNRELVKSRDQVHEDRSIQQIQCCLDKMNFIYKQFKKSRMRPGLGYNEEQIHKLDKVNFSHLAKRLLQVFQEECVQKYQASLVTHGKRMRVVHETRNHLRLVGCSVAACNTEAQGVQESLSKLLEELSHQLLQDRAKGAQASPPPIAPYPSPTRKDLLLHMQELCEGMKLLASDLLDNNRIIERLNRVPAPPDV
# run_description: Inhibition of recombinant full length human C-terminal GST-tagged IKKepsilon expressed in baculovirus expression system using biotin-labelled Ahx-GDEDFSSFAEPG peptide as substrate preincubated with enzyme for 15 mins followed by substrate addition and further incubated for 30 mins in presence of 10 uM of ATP by TR-FRET assay
Below, each of the compounds is paired with its reported IC50 value.

The following compounds have reported results that may help.
| compound | IC50 |
| --- | --- |
| Cc1noc(-c2ccc3nc(Nc4cc(CN5CCN(C(=O)C6CC6)CC5)ccn4)[nH]c3c2)n1 | 0.154 µM |
| CN(C)c1cc(-c2ccc3nc(Nc4cc(CN5CCN(C(=O)CC(F)(F)F)CC5)ccn4)[nH]c3c2)ncn1 | 0.01 µM |
| O=C(CC(F)(F)F)N1CCN(Cc2ccnc(Nc3nc4ccc(-c5cnn(CC6CC6)c5)cc4[nH]3)c2)CC1 | 0.007 µM |
| C[C@H](c1ccnc(Nc2nc3ccc(-c4cnn(CC5CCC5)c4)cc3[nH]2)c1)N1CCN(C(=O)CC(F)(F)F)CC1 | 0.004 µM |
| Cc1noc(-c2ccc3nc(Nc4cc(CN5CCN(C(=O)OC(C)(C)C)CC5)ccn4)[nH]c3c2)n1 | 0.914 µM |

Now consider a different compound.
Q: Recorded IC50 for O=C(NCCCNc1nc(Nc2cccc(NC(=O)N3CCCC3)c2)ncc1I)c1cccs1 [BX-795] , please?
Result: 0.018 µM
